system: 4T1; test: Anticancer activity against mouse 4T1 cells; format: functional, cell-based
measurement_name: IC50 (µM)

I: COc1ccc(N(C(=O)CCl)C(C(=O)NCCc2ccccc2)c2cccs2)cc1Cl (configuration not stated)
II: COC(=O)c1ccc([C@H]2c3[nH]c4ccccc4c3C[C@H](C(=O)OC)N2C(=O)CCl)cc1
Identify the item whose IC50 is the smaller number: I or II Could you answer with the label of the item you picked?
II

Numbers sourced from ChEMBL document CHEMBL6153022.
